Attribution: paper PMC5242521

TARGET ENTITY: MATE1 (Homo sapiens, UniProt Q96FL8)
Sequence (Q96FL8 whole entry): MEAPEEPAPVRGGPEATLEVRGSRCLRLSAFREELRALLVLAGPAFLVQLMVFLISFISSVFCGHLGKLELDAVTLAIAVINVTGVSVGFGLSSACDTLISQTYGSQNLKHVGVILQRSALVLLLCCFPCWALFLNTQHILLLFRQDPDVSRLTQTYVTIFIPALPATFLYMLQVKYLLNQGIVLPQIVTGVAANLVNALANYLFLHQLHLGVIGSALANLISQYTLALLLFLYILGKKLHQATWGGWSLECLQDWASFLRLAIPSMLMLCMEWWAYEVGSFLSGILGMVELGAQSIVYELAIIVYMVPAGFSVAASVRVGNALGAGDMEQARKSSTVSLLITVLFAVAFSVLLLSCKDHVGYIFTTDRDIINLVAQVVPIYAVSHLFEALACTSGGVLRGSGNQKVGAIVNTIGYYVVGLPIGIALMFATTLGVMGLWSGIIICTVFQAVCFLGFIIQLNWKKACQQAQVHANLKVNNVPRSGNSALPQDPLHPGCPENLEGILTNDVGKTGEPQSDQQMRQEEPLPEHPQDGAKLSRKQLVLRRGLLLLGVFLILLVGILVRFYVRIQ
PROTOCOL DETAILS: MATE1 activity: TEA accumulation in HEK-MATE1 cells
PROPERTY LABEL: pIC50
Schema: pIC50 number; meaning minus log10 of the concentration expressed in molar units.

Fill in the blank: the reported pIC50 of CC(C)=CC1C(C(=O)OCN2C(=O)C3=C(CCCC3)C2=O)C1(C)C (centres unmarked) [tetramethrin] is ____.
4.32

Param item: C=CCC1=C(C)C(OC(=O)C2C(C=C(C)C)C2(C)C)CC1=O (centres unmarked) [allethrin]
4.30

* * *

TARGET ENTITY: BCRP (Homo sapiens, UniProt Q9UNQ0)
Construct: expressed in transfected cells; host or cells: HEK293
Sequence (Q9UNQ0 whole entry): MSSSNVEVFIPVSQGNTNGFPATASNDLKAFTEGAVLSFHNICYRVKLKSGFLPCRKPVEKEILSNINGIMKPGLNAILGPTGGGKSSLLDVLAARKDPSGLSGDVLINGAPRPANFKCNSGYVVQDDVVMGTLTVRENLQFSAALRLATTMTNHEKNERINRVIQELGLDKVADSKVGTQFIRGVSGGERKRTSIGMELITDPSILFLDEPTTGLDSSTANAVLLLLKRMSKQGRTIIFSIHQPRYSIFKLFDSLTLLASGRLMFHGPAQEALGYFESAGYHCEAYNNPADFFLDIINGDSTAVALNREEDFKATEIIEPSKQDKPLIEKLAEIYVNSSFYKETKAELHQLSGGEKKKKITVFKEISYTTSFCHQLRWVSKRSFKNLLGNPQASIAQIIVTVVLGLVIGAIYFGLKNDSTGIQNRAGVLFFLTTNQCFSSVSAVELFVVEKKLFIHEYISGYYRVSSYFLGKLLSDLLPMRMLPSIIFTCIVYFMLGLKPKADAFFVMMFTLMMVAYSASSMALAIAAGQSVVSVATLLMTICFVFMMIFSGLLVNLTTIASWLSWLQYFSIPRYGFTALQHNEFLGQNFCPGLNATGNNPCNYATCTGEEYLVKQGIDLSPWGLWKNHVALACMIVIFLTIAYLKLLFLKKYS
PROTOCOL DETAILS: BCRP activity: Hoechst 33342 retention in HEK-BCRP cells
Assay type: cell-based
ASSAY CONDITIONS: human
PROPERTY LABEL: inhibition at 90 min, 100 μM (%)
// note: answer is a bare numeric in %

BCRP (Homo sapiens, UniProt Q9UNQ0) / inhibition at 90 min, 100 μM / C=CCC1=C(C)C(OC(=O)C2C(C=C(C)C)C2(C)C)CC1=O (stereo not shown) : value?
83.9

* * *

TARGET ENTITY: OATP1B1 (Homo sapiens)
Construct: expressed in transfected cells; host or cells: CHO
Sequence (Q9Y6L6 1-691): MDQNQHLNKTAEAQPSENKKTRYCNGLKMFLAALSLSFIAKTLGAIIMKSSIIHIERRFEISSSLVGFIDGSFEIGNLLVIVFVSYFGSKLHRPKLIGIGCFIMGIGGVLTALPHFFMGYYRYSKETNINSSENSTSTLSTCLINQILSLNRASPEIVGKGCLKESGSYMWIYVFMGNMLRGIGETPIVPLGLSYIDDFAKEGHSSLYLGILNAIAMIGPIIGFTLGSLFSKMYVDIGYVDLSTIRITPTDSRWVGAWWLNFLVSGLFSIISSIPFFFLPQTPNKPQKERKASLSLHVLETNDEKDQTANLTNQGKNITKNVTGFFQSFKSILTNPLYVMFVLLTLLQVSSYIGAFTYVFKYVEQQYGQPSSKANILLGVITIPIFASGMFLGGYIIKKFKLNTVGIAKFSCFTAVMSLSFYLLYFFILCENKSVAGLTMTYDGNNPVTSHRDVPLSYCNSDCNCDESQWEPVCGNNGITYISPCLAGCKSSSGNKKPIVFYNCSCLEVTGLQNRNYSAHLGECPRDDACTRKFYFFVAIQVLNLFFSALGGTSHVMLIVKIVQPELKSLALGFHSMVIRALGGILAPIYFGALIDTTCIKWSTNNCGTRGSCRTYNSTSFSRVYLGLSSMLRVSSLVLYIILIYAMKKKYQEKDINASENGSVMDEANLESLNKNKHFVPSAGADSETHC
PROTOCOL DETAILS: OATP1B1 activity: E3S accumulation in CHO-OATP1B1 cells
Type: cell-based
ASSAY CONDITIONS: human, pH 7.4
PROPERTY LABEL: inhibition at 100 μM

Fill in the blank: the reported inhibition at 100 μM of C=CCC1=C(C)C(OC(=O)C2C(C=C(C)C)C2(C)C)CC1=O (stereo not shown) [allethrin] is ____.
> 85%
